meta.source: patent US9550796B2

biological target: BRD2 (Homo sapiens (Human), UniProt P25440)
Sequence (P25440 60-472): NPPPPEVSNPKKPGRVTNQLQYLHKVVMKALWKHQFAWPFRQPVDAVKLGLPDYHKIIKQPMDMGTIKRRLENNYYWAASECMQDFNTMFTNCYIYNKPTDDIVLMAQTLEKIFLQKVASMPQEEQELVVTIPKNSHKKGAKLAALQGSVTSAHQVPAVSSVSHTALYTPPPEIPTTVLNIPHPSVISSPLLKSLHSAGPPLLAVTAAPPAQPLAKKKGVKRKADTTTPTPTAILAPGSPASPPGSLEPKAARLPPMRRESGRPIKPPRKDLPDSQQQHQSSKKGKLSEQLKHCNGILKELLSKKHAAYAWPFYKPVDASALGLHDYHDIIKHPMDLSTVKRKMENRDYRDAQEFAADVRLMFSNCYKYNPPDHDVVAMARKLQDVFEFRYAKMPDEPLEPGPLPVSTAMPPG
OBSERVATION TYPE: IC50 (nM)
Number only, in nM; omit the unit.

Cc1cn(C)c2c1C(=O)N(c1cc(C)c(=O)n(C)c1)C2c1ccc(Cl)cc1 (stereo not shown) = 37

Param item = COc1ncc(-c2cc3c(n2C)[C@@H](c2ccc(Cl)cc2)N(c2cc(C)c(=O)n(C)c2)C3=O)cn1 ; retrieve measured IC50.
30

Try the compound Cc1cn(C2CN(C)C2)c2c1C(=O)N(c1cc(C)c3nnc(C)n3c1)C2c1ccc(Cl)cc1 (stereo not shown)
45

Try the compound Cc1cc(N2C(=O)c3ccn(C4CC4)c3C2c2ccc(Cl)cc2)cn(C)c1=O (stereo not shown)
68

---

Collected MV-4-11 TGI values appear next to each entry.
tested on: MV-4-11; assay: Cell growth inhibition assay (CellTiter-Glo), MV-4-11; format: cell-based, human; settings: MV-4-11 cells, 4 days, total growth inhibition
Number only, in µM; omit the unit.

Cn1cc(N2C(=O)c3cc(-c4cccn(C)c4=O)n(C4CC4)c3C2c2ccc(Cl)cc2)cc(Cl)c1=O (stereo not shown) = 0.196
Cc1cc(N2C(=O)c3c(C4CC4)cn(C4COC4)c3C2c2ccc(Cl)cc2)nc2c1nnn2C (stereo not shown) = 0.011
CCOC(=O)n1ccc2c1C(c1ccc(Cl)cc1)N(c1cc(C)c3nnc(C)n3c1)C2=O (stereo not shown) = 0.08615
Cn1ccc2c1[C@@H](c1ccc(Cl)cc1)N(c1cc(Cl)c(=O)n(C)c1)C2=O = 0.0963
Cc1cc(N2C(=O)c3c(C4CC4)c(C)n(C)c3C2c2ccc(Cl)cc2)cn2c(C)nnc12 (stereo not shown) = 0.01297
Cc1cc(N2C(=O)c3c(C4CNC4)cn(C)c3C2c2ccc(Cl)cc2)nc2c1nnn2C (stereo not shown) = 0.00621
Cc1cc(N2C(=O)c3c(NC(=O)OC(C)(C)C)cn(C)c3C2c2ccc(Cl)cc2)cn2c(C)nnc12 (stereo not shown) = 0.0904
COc1ncccc1-c1cc2c(n1C)C(c1ccc(Cl)cc1)N(c1cc(C)c3nnc(C)n3c1)C2=O (stereo not shown) [Example 30] = 0.0213
CCOC(=O)n1cc(C)c2c1C(c1ccc(Cl)cc1)N(c1cc(C)c3nnc(C)n3c1)C2=O (stereo not shown) = 0.03155
Cn1ccc2c1C(c1ccccc1)N(c1cc(Cl)c(=O)n(C)c1)C2=O (stereo not shown) = 0.642

Param item = Cc1cc(N2C(=O)c3c(C4CC4)cn(C)c3[C@H]2c2ccc(Cl)cc2)cn2c(C)nnc12 ; retrieve measured MV-4-11 TGI.
0.00622

---

Collected THP-1 TGI values appear next to each entry.
tested on: THP-1; assay: Cell growth inhibition assay (CellTiter-Glo), THP-1; format: cell-based, human; conditions: THP-1 cells, 4 days, total growth inhibition
Number only, in nM; omit the unit.

# example entries with known answers
Cc1cc(N2C(=O)c3ccn(C(=O)N(C)C)c3C2c2ccc(Cl)cc2)cn2c(C)nnc12 (stereo not shown) = 267.5
COc1ncc(-c2cc3c(n2C)C(c2ccc(Cl)cc2)N(c2cc(Cl)c(=O)n(C)c2)C3=O)c(OC)n1 (stereo not shown) = 72.7
CC(=O)Nc1cn(C)c2c1C(=O)N(c1cc(C)c3nnc(C)n3c1)C2c1ccc(Cl)cc1 (stereo not shown) = 119
CC(=O)N1CC(n2cc(C)c3c2C(c2ccc(Cl)cc2)N(c2cc(C)c4nnc(C)n4c2)C3=O)C1 (stereo not shown) = 449.5

Param item = CC(=O)Nc1cn(C)c2c1C(=O)N(c1cc(C)c3nnc(C)n3c1)[C@@H]2c1ccc(Cl)cc1 ; retrieve measured THP-1 TGI.
79.2

Try the compound Cc1cc(N2C(=O)c3cc(-c4ccc(N(C)C)nc4)n(C)c3C2c2ccc(Cl)cc2)cn(C)c1=O (stereo not shown)
64.9

Try the compound Cc1cc(N2C(=O)c3ccn(C4CC4)c3C2c2ccc(Cl)cc2)cn(C)c1=O (stereo not shown)
224

Try the compound Cc1cc(N2C(=O)c3ccn(C)c3C2c2ccccc2)cn(C)c1=O (stereo not shown)
904

Try the compound Cc1cc(N2C(=O)c3c(C(=O)NCCN(C)C)cn(C)c3C2c2ccc(Cl)cc2)cc2c1nnn2C (stereo not shown)
95.95
